Cited source for all entries: ChEMBL document CHEMBL4196140

- TARGET OR TEST SYSTEM: Phosphotyrosine protein phosphatase (Mycobacterium tuberculosis) (UniProt A0A045ISB3)
- Sequence (whole entry): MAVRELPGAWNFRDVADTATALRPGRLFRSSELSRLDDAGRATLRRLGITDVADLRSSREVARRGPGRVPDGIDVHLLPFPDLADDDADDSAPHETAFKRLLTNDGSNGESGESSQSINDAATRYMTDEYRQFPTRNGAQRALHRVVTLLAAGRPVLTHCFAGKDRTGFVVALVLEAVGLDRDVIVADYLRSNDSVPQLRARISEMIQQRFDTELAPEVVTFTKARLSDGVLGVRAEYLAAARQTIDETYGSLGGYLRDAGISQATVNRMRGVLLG
- PROTOCOL: Inhibition of Mycobacterium PTPB at 50 uM using p-nitrophenyl phosphate as substrate incubated for 10 mins followed by substrate addition and measured for 5 mins by spectrophotometric method
Calls of active or inactive are those of the source. The rule behind the calls is not given here.
QUANTITY: inhibition

Example cases with answers are listed next.
Problem: Look at this compound and give its reported inhibition. "COc1cc2c(c(O)c1OC)C(=O)O[C@@H]1C[C@H](CCC(=O)O)O[C@H]21"
Result: inactive

Problem: Any idea what its inhibition is? The compound is "CCCCc1c(OC)cc(=O)oc1CO"
Result: inactive

Problem: Fill blank: measured inhibition of the compound "COc1cc(=O)oc(C)c1CCCC(=O)O" is ____.
Result: inactive

Problem: Consider the compound "CCC[C@@H]1C[C@H]2OC(=O)c3c(cc(O)c(OC)c3O)[C@@H]2O1" and give its measured inhibition.
Result: inactive

***
Problem: # lookup: inhibition of CCCCC1=C(OC)C(=O)OC1(C)O (racemic)
Result: inactive

Problem: Param item = "CCCCOCc1c(O)cc(C)c2c1Oc1c(C)cc(O)c(C)c1OC2=O" ; retrieve measured inhibition.
Result: inactive

Problem: Request the reported inhibition associated with COc1cc(=O)oc(C)c1CCC(C)O (configuration not stated)
Result: inactive

Problem: Give its inhibition value. Item: "CC[C@H](O)[C@H]1C[C@H]2OC(=O)c3c(cc(OC)c(OC)c3O)[C@H]2O1"
Result: inactive

Problem: inhibition lookup needed for "CCC[C@H]1C[C@H](O)[C@@]2(OC(=O)c3c2cc(OC)c(OC)c3O)O1" , thanks.
Result: inactive

Problem: Quick check: inhibition of "CCCCc1c(OC)cc(=O)oc1C" ?
Result: inactive

Problem: Any idea what its inhibition is? The compound is CCC(O)Cc1c(OC)cc(=O)oc1C (configuration not stated)
Result: inactive

Problem: Given the entry "COc1cc2c(c(O)c1OC)C(=O)O[C@@H]1C[C@H](C[C@@H](C)O)O[C@H]21" , report its measured inhibition.
Result: inactive
